Origin of values: ChEMBL document CHEMBL4627254

test: Antiproliferative activity against over expressing […] human WSU-DLCL2 cells; type: functional; details: WSUDLCL2
valueKind: IC50 (µM)
Write it as a number; the unit µM goes unstated.

[
  {
    "compoundStructureString": "CCN(c1cc(/C=C/c2ccc(CN3C[C@@H]4C[C@H]3CO4)c(F)c2)cc(C(=O)NCc2c3c(c(C)[nH]c2=O)CCCC3)c1C)C1CCOCC1",
    "unitSymbol": "µM",
    "IC50": 9.27
  }
]

Field request: IC50 | item: CCN(c1cc(/C=C/c2ccc(CN3CCC4(CC3)OCCO4)cc2)cc(C(=O)NCc2c3c(c(C)[nH]c2=O)CCCC3)c1C)C1CCOCC1 27.7

Field request: IC50 | item: CCN(c1cc(/C=C/c2cccc(CN(C)C)c2)cc(C(=O)NCc2c(C)c3c([nH]c2=O)CCCC3)c1C)C1CCOCC1 20.9

Field request: IC50 | item: CCN(c1cc(-c2ccc(CN3CCOCC3)cc2)cc(C(=O)NCc2c(C)cc(C)[nH]c2=O)c1C)C1CCOCC1 17.8
